Data provenance is ChEMBL document CHEMBL5058577.

# Tested on: Fibroblast
# test.summary: Multiplex assay against human fibroblast
# Format: toxicity, cell-based
# measurement.context: 12 h, 10 µM, compound concentration 10 uM, replicate 2
A collection of compounds and their measured Population Tubulin-Different-Phenotype (%)
Reply numerically in %, unit not repeated.

// known answers, use as guide
compound	data.value
N[C@@]1(C(=O)O)CO[C@H]2[C@H](C(=O)O)[C@H]21	47
Cc1ccc(/C(=C\CN2CCCC2)c2ccccn2)cc1	59
CN1CCN2c3ncccc3Cc3ccccc3C2C1 (stereo not given)	60
c1cc(OCCCN2CCCCC2)ccc1CN1CCCCC1	60

Now for another entry.
Q: Which measured Population Tubulin-Different-Phenotype (%) value corresponds to CC(=O)NCCc1c(Cc2ccccc2)[nH]c2ccccc12 ?
A: 32

----------
# System: Fibroblast
# test.summary: Multiplex assay against human fibroblast
# Type: toxicity, cell-based
# measurement.context: 48 h, 10 µM, compound concentration 10 uM, replicate 1
// label = satisfied if Population Pyknosed Nuclei (%) is not less than 20%, otherwise not satisfied

molecule	group.label
C[C@H](NC(=O)c1c(C(F)F)nn(C)c1Oc1cccc(C(F)(F)F)c1)c1ccc(C(=O)O)cc1	not satisfied
CCCN1CCC[C@@H]2Cc3n[nH]cc3C[C@H]21.Cl [QUINPIROLE HYDROCHLORIDE]	not satisfied
Oc1c(CN2CCN(c3ccccn3)CC2)cc(Cl)c2cccnc12	satisfied

Q: Quick check, Population Pyknosed Nuclei (%) >= 20%? O=C1COc2nccc(-c3ccccc3F)c2CN1Cc1cc(C(F)(F)F)cc(C(F)(F)F)c1
A: not satisfied

Q: Then what about the molecule C[C@@H]1C[C@H]2[C@@H]3CCC4=CC(=O)C=C[C@]4(C)[C@@]3(F)[C@@H](O)C[C@]2(C)[C@@]1(O)C(=O)CO ?
A: satisfied

Q: Repeat with N[C@@]1(C(=O)O)CO[C@H]2[C@H](C(=O)O)[C@H]21
A: not satisfied

Q: Same lookup for CNC[C@H](O)c1ccc(O)c(O)c1 [EPINEPHRINE] , please.
A: not satisfied

Q: Another molecule to check: Cc1ccccc1C(=O)Nc1ccc(C(=O)N2CCCC(N(C)C)c3ccccc32)cc1.Cl (stereo not drawn)
A: not satisfied

----------
# System: U2OS
# test.summary: Multiplex assay against U2OS
# Type: toxicity, cell-based
# measurement.context: human, 48 h, 10 µM, compound concentration 10 uM, replicate 1
measurement.kind: Population Mitotic Cells (%)
Reply with just the number (in %).

Cc1ccc(-c2ccc(F)cc2COc2ccc(CCC(=O)O)cc2)cc1 12
CC1(COc2ccc3c(c2)ncn3-c2ccc3cccc(N4CCC(N)CC4)c3n2)COC1 0
O=C(O)c1cc2ccccc2c(Cc2c(O)c(C(=O)O)cc3ccccc23)c1O 3
O=C(O)Cc1ccccc1Nc1c(Cl)cccc1Cl 13
O=C(NCC(=O)N1CC[C@H](N[C@H]2CC[C@@](O)(c3ccc(-c4ncccn4)cn3)CC2)C1)c1cccc(C(F)(F)F)c1 30
O=C(NCCO)c1cccc(-c2cc(Nc3ccc(OC(F)(F)F)cc3)ncn2)c1 7

Q: Sample CN(C)c1ccnc2sc3c(=O)n(N4CCCCCC4)cnc3c12 — what was its Population Mitotic Cells (%)?
A: 31

----------
# Tested on: Fibroblast
# test.summary: Multiplex assay against human fibroblast
# Format: toxicity, cell-based
# measurement.context: 48 h, 10 µM, compound concentration 10 uM, replicate 1
Entries and their Population Hoechst High Intensity Objects (%) values follow.
API: value field is a number in %; no unit string.

Previously resolved entries follow.
compound	target.desc	result.units	data.value
C[C@@H]1C[C@H]2[C@@H]3CCC4=CC(=O)C=C[C@]4(C)[C@@]3(F)[C@@H](O)C[C@]2(C)[C@@]1(O)C(=O)CO	Fibroblast	%	4
C[C@H](NC(=O)c1c(C(F)F)nn(C)c1Oc1cccc(C(F)(F)F)c1)c1ccc(C(=O)O)cc1	Fibroblast	%	4
COc1ccc2c(c1)C(C(=O)N(Cc1ccc(N(C)C)cc1)c1ccc(C(C)C)cc1)CCC2.Cl (configuration not stated)	Fibroblast	%	4
C[C@H]1[C@H]2CC[C@H]3[C@@H]4CC=C5C[C@@H](N(C)C)CC[C@]5(C)[C@H]4CC[C@]23CN1C	Fibroblast	%	6
CCNC1(C(N)=O)CCN(c2ncnc3c2nc(-c2ccccc2Cl)n3-c2ccc(Cl)cc2)CC1	Fibroblast	%	8

Q: Fill in: Population Hoechst High Intensity Objects (%) of N[C@@]1(C(=O)O)CO[C@H]2[C@H](C(=O)O)[C@H]21 is ___
A: 1

Q: Now give it for COc1cc(NC(=O)CCN2CCC(OC(=O)Nc3ccccc3-c3ccccc3)CC2)c(Cl)cc1CNC[C@H](O)c1ccc(O)c2[nH]c(=O)ccc12 too.
A: 1

Q: Oc1c(CN2CCN(c3ccccn3)CC2)cc(Cl)c2cccnc12 , same question.
A: 2

Q: Repeat for the following compound: O=C(NCC(=O)N1CC[C@H](N[C@H]2CC[C@@](O)(c3ccc(-c4ncccn4)cn3)CC2)C1)c1cccc(C(F)(F)F)c1
A: 6
